IC50 values for the compounds below.
- Tested on: G361 human melanoma cells
- PROTOCOL_DETAILS: MTT cell viability assay, G361 melanoma
- Format: cell-based
- REPORTED_CONDITIONS: G361, MTT test, 24 h treatment
- Procedure: The evaluation of cytotoxicity of tested compounds was carried out on the G361, A375, and SK-MEL-28 human melanoma cells and BJ human normal fibroblast cells. […] The cells were seeded into 96-well plates (in concentration: BJ, A375, and SK-MEL-28—1 × 10^5 cells/mL, G361—1.5 × 10^5 cells/mL) and cultured until they reach 70–80% confluency. […] The solution absorbency was measured at 570 nm, using a PowerWave™ xs microplate spectrophotometer (BioTek Instruments, Winooski, VT, USA). […]
Please give a number only; it is taken to be in µM.

Below, 3 compounds whose answers are already recorded.
{"ITEM_SMILES": "S=C(NN=Cc1ccc(Cl)c(Cl)c1)Nc1ccccc1Cl.S=C(NN=Cc1ccc(Cl)c(Cl)c1)Nc1ccccc1Cl.[Cl-].[Cl-].[Cu+2]", "OBSERVED_VALUE": 157}
{"ITEM_SMILES": "COc1ccc(C=NNC(=S)Nc2ccccc2Cl)cc1OC.COc1ccc(C=NNC(=S)Nc2ccccc2Cl)cc1OC.[Cl-].[Cl-].[Cu+2]", "OBSERVED_VALUE": 251}
{"ITEM_SMILES": "COc1ccc(C=NNC(=S)Nc2ccccc2)cc1OC.[Cl-].[Cl-].[Cu+2]", "OBSERVED_VALUE": 136}

// switching to the query compound
Determine its reported IC50: `S=C(NN=Cc1ccc(Br)cc1)Nc1cccc(Cl)c1.[Cl-].[Cl-].[Cu+2]` 148
